test system: ERK phosphorylation in NCI-H358_Cas9_SOS2; assay: ERK phosphorylation assay 2 (AlphaLISA SureFire Ultra p-ERK1/2), SOS2 knock-out; assay type: cell-based; conditions: Homo sapiens, NCI-H358; assay 2 (marked with *); read-out: IC50 H358 pERK
Measured Attribute: pIC50
pIC50 (log units): -log10 of the concentration in mol/L.

C=C(F)C(=O)N1[C@@H](C)CN(c2cc(O[C@@H](C)[C@@H]3CCCN3C)nc(-c3cc([C@@]4(C)CCCc5sc(N)c(C#N)c54)on3)n2)C[C@@H]1C: 7.35
C=CC(=O)N1CCC(Oc2cc(O[C@@H](C)[C@@H]3CCCN3C)nc(-c3cc([C@@]4(C)CCCc5sc(N)c(C#N)c54)on3)n2)CC1: 9.22
COC/C=C/C(=O)N1CCN(c2cc(O[C@@H](C)[C@@H]3CCCN3C)nc(-c3cc([C@@]4(C)CCCc5sc(N)c(C#N)c54)on3)n2)[C@H](C)C1: 7.90

Enquiry: Looking for the measured pIC50 of C=C(F)C(=O)N1CCC(Oc2cc(N3CCN(C)C[C@@H]3C)nc(-c3cc(C4(C)CCCc5sc(N)c(C#N)c54)on3)n2)CC1 (stereo partly drawn) , can you help?
Return: 5.94

Enquiry: And the next one, C=CC(=O)N1CCN(c2cc(O[C@@H](C)[C@@H]3CCCN3C)nc(-c3cc([C@@]4(C)CCCc5sc(N)c(C#N)c54)on3)n2)CC12CC2 ?
Return: 8.17

Enquiry: And the next one, C=CC(=O)N1[C@H](C)CN(c2cc(O[C@@H](C)[C@@H]3CCCN3C)nc(-c3cc([C@@]4(C)CCCc5sc(N)c(C#N)c54)no3)n2)C[C@@H]1C ?
Return: 7.88

---

biological target: Ba/F3 cells bearing a KRAS G12C mutation (Homo sapiens, UniProt P01116, G12C, cells depend on it); experiment: Ba/F3 cell model proliferation assay (AlamarBlue, 72 h); assay type: cell-based; conditions: corrected by plasma protein binding in 10% FCS (fraction unbound); read-out: IC50 Ba/F3 KRASG12C (corrected)
Sequence (P01116 whole entry G12C): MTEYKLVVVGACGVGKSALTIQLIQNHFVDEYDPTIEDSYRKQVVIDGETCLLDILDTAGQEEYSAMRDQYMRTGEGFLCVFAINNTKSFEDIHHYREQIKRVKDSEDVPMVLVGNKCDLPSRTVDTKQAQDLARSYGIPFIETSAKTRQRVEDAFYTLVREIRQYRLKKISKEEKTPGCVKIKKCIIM
Label key: Criterion met means GI50 under 1 nM; Criterion not met means GI50 of 1 nM or more.

Enquiry: Strictly below 1 nM in GI50? C=CC(=O)N1[C@@H](C)CN(c2cc(O[C@@H](C)[C@@H]3CCCN3C)nc(-c3cc([C@@]4(C)CCCc5sc(N)c(C#N)c54)no3)n2)C[C@@H]1C
Return: Criterion met

Enquiry: And the next one, COC/C=C/C(=O)N1CCN(c2cc(O[C@@H](C)[C@@H]3CCCN3C)nc(-c3cc(C4(C)CCCc5sc(N)c(C#N)c54)no3)n2)CC1 (stereo partly drawn) ?
Return: Criterion not met

Enquiry: And the next one, COC/C=C/C(=O)N1CCN(c2cc(O[C@@H](C)[C@@H]3CCCN3C)nc(-c3cc([C@@]4(C)CCCc5sc(N)c(C#N)c54)on3)n2)CC12CC2 ?
Return: Criterion not met

Enquiry: And the next one, C=CC(=O)N1[C@@H](C)CN(c2cc(O[C@@H](C)[C@@H]3CCCN3C)nc(-c3cc([C@@]4(C)CCCc5sc(N)c(C#N)c54)sn3)n2)C[C@@H]1C ?
Return: Criterion met

Enquiry: And the next one, C=CC(=O)N1CCN(c2cc(O[C@@H](C)[C@@H]3CCCN3C)nc(-c3cc([C@@]4(C)CCCc5sc(N)c(C#N)c54)sn3)n2)CC1 ?
Return: Criterion met

# credit: patent US11945812B2
